molecular target: bovine cathepsin B (Bos taurus, UniProt P07688); experiment: Rate of hydrolysis of fluorescent dipeptide substrates incubated with bovine cathepsin B (release of 7-AMC); format: biochemical; conditions: incubation with bovine cathepsin B
Catalogue of compounds with associated Rate of Hydrolysis
// return numeric value only (unit: nmmol/min/mg, not printed)

Known Rate of Hydrolysis results, listed for orientation:
[in] Given Cc1cc(=O)oc2cc(NC(=O)OCc3ccc(NC(=O)[C@H](CCCN4CCOCC4)NC(=O)[C@@H](NC(=O)OCc4ccccc4)C(C)C)cc3)ccc12 , state its recorded Rate of Hydrolysis.
[out] 27.2

[in] Fill in: Rate of Hydrolysis of Cc1cc(=O)oc2cc(NC(=O)OCc3ccc(NC(=O)[C@H](CCCNC(N)=O)NC(=O)[C@@H](NC(=O)OCc4ccccc4)C4CCOCC4)cc3)ccc12 is ___
[out] 0.84

[in] Fill blank: measured Rate of Hydrolysis of the compound CCOC(=O)N1CCC([C@H](NC(=O)OCc2ccccc2)C(=O)N[C@@H](CCCNC(N)=O)C(=O)Nc2ccc(COC(=O)Nc3ccc4c(C)cc(=O)oc4c3)cc2)CC1 is ____.
[out] 0.63

[in] Reported Rate of Hydrolysis for Cc1cc(=O)oc2cc(NC(=O)OCc3ccc(NC(=O)[C@H](CCCNC(N)=O)NC(=O)[C@@H](NC(=O)OCc4ccccc4)C4CCNCC4)cc3)ccc12 : what is it?
[out] 0.84

[in] Record request: Rate of Hydrolysis value, item Cc1cc(=O)oc2cc(NC(=O)OCc3ccc(NC(=O)[C@H](CCCNC(N)=O)NC(=O)[C@@H](NC(=O)OCc4ccccc4)C4CCN(C)CC4)cc3)ccc12
[out] 0.59

[in] What value of Rate of Hydrolysis has been reported for the following compound? Cc1cc(=O)oc2cc(NC(=O)OCc3ccc(NC(=O)[C@H](CCCNC(N)=O)NC(=O)[C@@H](NC(=O)OCc4ccccc4)C4CC[S+]([O-])CC4)cc3)ccc12 (stereo partly drawn)
[out] 0.55

[in] Name the reported Rate of Hydrolysis value associated with the compound Cc1cc(=O)oc2cc(NC(=O)OCc3ccc(NC(=O)[C@H](CCCNC(N)=O)NC(=O)[C@@H](NC(=O)OCc4ccccc4)C4CCCNC4)cc3)ccc12 (stereo partly drawn)
[out] 0

[in] Requested read-out: Rate of Hydrolysis. Entry: Cc1cc(=O)oc2cc(NC(=O)OCc3ccc(NC(=O)[C@H](CCCNC(N)=O)NC(=O)[C@@H](NC(=O)OCc4ccccc4)C4CCSCC4)cc3)ccc12
[out] 0

[in] Which Rate of Hydrolysis is reported for this compound? Cc1cc(=O)oc2cc(NC(=O)OCc3ccc(NC(=O)C(CC4CCC(CN)CC4)NC(=O)[C@@H](NC(=O)OCc4ccccc4)C(C)C)cc3)ccc12 (stereo partly drawn)
[out] 20.9

[in] Quick check: Rate of Hydrolysis of Cc1cc(=O)oc2cc(NC(=O)OCc3ccc(NC(=O)[C@H](CCCNC(N)=O)NC(=O)[C@@H](NC(=O)OCc4ccccc4)C(C)C)cc3)ccc12 [reference compound] ?
[out] 2.67

Next:
[in] For the compound Cc1cc(=O)oc2cc(NC(=O)OCc3ccc(NC(=O)[C@H](CCCN4CCCCC4)NC(=O)[C@@H](NC(=O)OCc4ccccc4)C(C)C)cc3)ccc12 , what Rate of Hydrolysis is on record?
[out] 25.1

[in] What value of Rate of Hydrolysis has been reported for the following compound? Cc1cc(=O)oc2cc(NC(=O)OCc3ccc(NC(=O)[C@H](CCCNC(N)=O)NC(=O)[C@@H](NC(=O)OCc4ccccc4)C4CCS(=O)(=O)CC4)cc3)ccc12
[out] 0

The measured values listed here are drawn from patent US10280229B2.
